B1: ZNF232 (parent)
chain: GKAYGWCSELIRHRRVHARKEPSH

Variants of: B1
Assay: protein stability index of a GFP-peptide fusion (GPS, HEK-293T) (PSI 1-6); higher = more stable;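 also: lentivirally expressed fusions sorted by FACS into six bins by GFP to DsRed ratio, PSI derived from sequencing read proportions per bin multiplied by bin number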
Conditions: c terminus: a fixed tail appended
Criterion: protein stability index meeting or surpassing 3. Met: True. Not met: False.

See these solved cases before continuing.
R12V = False
H17E = True
I11A = True
E9W = False
C7R = True

Exercise: Could you tell me if the measured protein stability index of E9F reaches 3 or more?
Solution: False

Exercise: Could you tell me if the measured protein stability index of E21I reaches 3 or more?
Solution: False

Exercise: Could you tell me if the measured protein stability index of K2I reaches 3 or more?
Solution: False

Exercise: Could you tell me if the measured protein stability index of L10H reaches 3 or more?
Solution: True
